- Assay protocol: Tissue concentrations of capecitabine and its metabolites 2 h after oral capecitabine in CES2-modified mice
- Format: in vivo, mouse
- Condition details: female Ces2^–/–V mice, oral capecitabine 500 mg/kg
Recorded endpoint: Colon concentration ratio (metabolite/capecitabine)

Compound	Result value
O=c1[nH]cc(F)c(=O)[nH]1 [5-FU, 5-fluorouracil, reference compound]	0.50 ± 0.18^###^^^
NCC(F)C(=O)O (stereo not shown)	0.60 ± 0.36^###^
C[C@H]1O[C@@H](n2cc(F)c(N)nc2=O)[C@H](O)[C@@H]1O	5.1 ± 2.1
C[C@H]1O[C@@H](n2cc(F)c(=O)[nH]c2=O)[C@H](O)[C@@H]1O	1.2 ± 0.5^###^^^
